# Tested on: Hippocampus
# experiment description: Inhibition of fast transient potassium current in Sprague-Dawley rat hippocampal neurons at 100 uM by whole cell voltage clamp method
# Assay type: functional
value kind: inhibition at 100 µM (%)
The reply should contain only the number, in %.

Inquiry: # return recorded inhibition at 100 µM for input NC(COc1ccccc1)c1ccc2c(c1)OCCO2 (stereo unspecified)
Reply text: 20

Inquiry: Hello, please tell me recorded inhibition at 100 µM for this one: Cc1nc(-c2cccnc2)nc(NCCN)c1Cl
Reply text: 9

Inquiry: Provide inhibition at 100 µM value for the following molecule: Cc1ccc(S(=O)(=O)NCCOCCOCCOCCNS(=O)(=O)c2ccc(C)cc2)cc1
Reply text: 63

Inquiry: Give the measured inhibition at 100 µM for O=S(=O)(CCN1CCN(Cc2ccccc2)CC1)c1ccc(Cl)cc1
Reply text: 11

Inquiry: Respond only with inhibition at 100 µM recorded for NCCNS(=O)(=O)c1cccc2c(Cl)cccc12
Reply text: 27

Inquiry: Determine its reported inhibition at 100 µM: COc1ccc2c(CCN)c[nH]c2c1
Reply text: 10

Data provenance is ChEMBL document CHEMBL1139222.
